Tested on: HAB1
EXPERIMENTAL PROTOCOL: Yeast two hybrid of pBD-PYR1 site saturation mutants with pACT-HAB1 on 10 μM ABA, β-galactosidase staining
Assay type: cell-based, Arabidopsis
Parameters: key: x: Mutations in PYR1 that disrupt ABA-induced binding to PYR1 to HAB1
TEST PARAMETERS: S. cerevisiae Y190, 10 μM ABA; dead = lack of visible staining in comparison to wild type control
PROPERTY NAME: Mutations in PYR1 that disrupt ABA-induced binding to PYR1 to HAB1

MOLECULE	OBSERVED
P88F: PYR1 mutant (protein, UniProt O49686 1-191, looked up, variant P88F) Abscisic acid receptor PYR1: MPSELTPEERSELKNSIAEFHTYQLDPGSCSSLHAQRIHAPPELVWSIVRRFDKPQTYKHFIKSCSVEQNFEMRVGCTRDVIVISGLFANTSTERLDILDDERRVTGFSIIGGEHRLTNYKSVTTVHRFEKENRIWTVVLESYVVDMPEGNSEDDTRMFADTVVKLNLQKLATVAEAMARNSGDGSGSQVT	x
G86I: PYR1 mutant (protein, UniProt O49686 1-191, looked up, variant G86I) Abscisic acid receptor PYR1: MPSELTPEERSELKNSIAEFHTYQLDPGSCSSLHAQRIHAPPELVWSIVRRFDKPQTYKHFIKSCSVEQNFEMRVGCTRDVIVISILPANTSTERLDILDDERRVTGFSIIGGEHRLTNYKSVTTVHRFEKENRIWTVVLESYVVDMPEGNSEDDTRMFADTVVKLNLQKLATVAEAMARNSGDGSGSQVT	x
F159Y: PYR1 mutant (protein, UniProt O49686 1-191, looked up, variant F159Y) Abscisic acid receptor PYR1: MPSELTPEERSELKNSIAEFHTYQLDPGSCSSLHAQRIHAPPELVWSIVRRFDKPQTYKHFIKSCSVEQNFEMRVGCTRDVIVISGLPANTSTERLDILDDERRVTGFSIIGGEHRLTNYKSVTTVHRFEKENRIWTVVLESYVVDMPEGNSEDDTRMYADTVVKLNLQKLATVAEAMARNSGDGSGSQVT	x

Sourced from patent US10919943B2
